# METHOD NOTES: WST-1 cell viability assay
# Type: cell-based, Human
# CONDITION DETAILS: human, corneal epithelial cells, 0.5 µM, DMSO control = 100 ± 12%, mean ± SD

SMILES REPRESENTATION | viability at 72 h, 0.5 µM (%)
C[C@@H]1O[C@@H](OC[C@H]2O[C@@H](Oc3cc(O)c4c(c3)O[C@H](c3ccc(O)c(O)c3)CC4=O)[C@H](O)[C@@H](O)[C@@H]2O)[C@H](O)[C@H](O)[C@H]1O | 110

Reference source: patent EP4302767A1
